This collection of values is drawn from ChEMBL document CHEMBL1146597.

Target: GABA A receptor alpha-4/beta-3/gamma-2 (Homo sapiens, UniProt P18507+P28472+P48169)
Sequence (P18507 whole entry): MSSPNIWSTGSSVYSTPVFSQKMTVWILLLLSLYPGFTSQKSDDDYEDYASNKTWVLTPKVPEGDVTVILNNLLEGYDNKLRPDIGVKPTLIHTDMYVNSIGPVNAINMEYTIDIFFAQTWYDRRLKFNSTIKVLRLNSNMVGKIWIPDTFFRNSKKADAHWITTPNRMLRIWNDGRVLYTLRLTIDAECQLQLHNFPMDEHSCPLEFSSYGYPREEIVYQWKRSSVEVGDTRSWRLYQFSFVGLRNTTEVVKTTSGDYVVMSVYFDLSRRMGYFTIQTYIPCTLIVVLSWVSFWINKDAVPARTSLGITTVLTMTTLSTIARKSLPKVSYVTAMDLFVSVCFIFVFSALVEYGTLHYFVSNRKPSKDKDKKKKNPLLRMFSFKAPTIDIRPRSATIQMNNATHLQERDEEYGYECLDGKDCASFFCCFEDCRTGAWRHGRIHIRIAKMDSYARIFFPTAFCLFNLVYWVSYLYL
Sequence (P28472 whole entry): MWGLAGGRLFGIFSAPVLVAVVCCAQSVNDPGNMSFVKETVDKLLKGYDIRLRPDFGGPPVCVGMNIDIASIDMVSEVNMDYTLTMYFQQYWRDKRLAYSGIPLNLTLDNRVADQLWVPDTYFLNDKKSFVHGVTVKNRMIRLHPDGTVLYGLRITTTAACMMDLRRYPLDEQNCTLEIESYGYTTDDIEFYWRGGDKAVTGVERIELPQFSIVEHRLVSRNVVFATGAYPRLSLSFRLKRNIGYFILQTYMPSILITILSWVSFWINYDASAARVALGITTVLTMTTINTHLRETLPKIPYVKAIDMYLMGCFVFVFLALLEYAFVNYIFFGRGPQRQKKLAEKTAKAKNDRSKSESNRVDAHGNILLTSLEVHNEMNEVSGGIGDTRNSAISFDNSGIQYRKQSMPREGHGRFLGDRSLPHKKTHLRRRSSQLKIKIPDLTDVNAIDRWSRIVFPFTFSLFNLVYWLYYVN
Sequence (P48169 whole entry): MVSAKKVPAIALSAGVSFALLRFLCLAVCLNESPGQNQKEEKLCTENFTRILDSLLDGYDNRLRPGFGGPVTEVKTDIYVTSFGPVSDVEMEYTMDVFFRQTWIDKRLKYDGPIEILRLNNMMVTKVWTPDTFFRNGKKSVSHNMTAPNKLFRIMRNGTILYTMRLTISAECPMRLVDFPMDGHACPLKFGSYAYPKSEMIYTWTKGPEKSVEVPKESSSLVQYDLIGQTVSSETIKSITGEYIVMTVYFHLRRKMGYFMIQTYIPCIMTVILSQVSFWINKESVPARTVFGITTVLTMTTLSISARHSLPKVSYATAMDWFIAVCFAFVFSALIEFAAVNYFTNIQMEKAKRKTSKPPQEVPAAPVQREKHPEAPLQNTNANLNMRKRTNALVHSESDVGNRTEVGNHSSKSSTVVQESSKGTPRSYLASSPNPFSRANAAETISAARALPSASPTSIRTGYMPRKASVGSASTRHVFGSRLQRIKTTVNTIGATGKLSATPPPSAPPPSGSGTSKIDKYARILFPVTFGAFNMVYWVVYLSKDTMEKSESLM
Assay: In vitro binding affinity for human GABA-A receptor alpha-4-beta-3-gamma-2 subunits expressed in L(tk-) cell membranes
ENDPOINT LABEL: Ki (nM)
All answers are understood in nM, so give the number only.

So, CN1Cc2c(C(=O)OC(C)(C)C)ncn2-c2ccc(C#C[Si](C)(C)C)cc2C1=O ? Its Ki was 7.8

The reported Ki of the compound C#Cc1ccc2c(c1)C(=O)N(C)Cc1c(C(=O)OCC)ncn1-2 was 53

compound C#Cc1ccc2c(c1)C(=O)N(C)Cc1c(C(=O)OCCCOC(=O)c3ncn4c3CN(C)C(=O)c3cc(C#C)ccc3-4)ncn1-2 , Ki observed: 1550
